Assay Procedure: Partition coefficient (logP)
Format: physicochemical
Experimental Context: octanol/water
Threshold check on logP: strictly below 2 is 1; on or above 2 is -1.

Please review the entries below; each comes with its answer.
CC(C)(C)C1=CC(=C/C=C/c2cc(C(C)(C)C)[se+]c(C(C)(C)C)c2)C=C(C(C)(C)C)S1    -1
CC(C)(C)C1=CC(=C/C=C/c2cc(C(C)(C)C)[te+]c(C(C)(C)C)c2)C=C(C(C)(C)C)O1    -1
CC(C)(C)C1=CC(=C/C=C/c2cc(C(C)(C)C)[o+]c(C(C)(C)C)c2)C=C(C(C)(C)C)O1    -1
CC(C)(C)C1=CC(=C/C=C/c2cc(C(C)(C)C)[te+]c(C(C)(C)C)c2)C=C(C(C)(C)C)[Se]1    -1

Now for a further molecule.
[in] Could you please tell me whether logP recorded for `CC(C)(C)C1=CC(=C/C=C/c2cc(C(C)(C)C)[se+]c(C(C)(C)C)c2)C=C(C(C)(C)C)[Se]1` is less than 2?
[out] 1

###

Assay Procedure: Ability to inhibit the Mitochondrial cytochrome c Oxidase in isolated mitochondrial suspensions from R3230AC rat mammary adenocarcinomas
Set-up: concentration or dose not given beside the values
Experimental Context: concentration not given here
Experimental Endpoint: inhibition (%)
Just the number in %, nothing appended.

Illustrative cases are given below, each with its answer.
CC(C)(C)C1=CC(=C/C=C/c2cc(C(C)(C)C)[te+]c(C(C)(C)C)c2)C=C(C(C)(C)C)[Se]1    3
CC(C)(C)C1=CC(=C/C=C/c2cc(C(C)(C)C)[se+]c(C(C)(C)C)c2)C=C(C(C)(C)C)[Se]1    4.2
CC(C)(C)C1=CC(=C/C=C/c2cc(C(C)(C)C)[o+]c(C(C)(C)C)c2)C=C(C(C)(C)C)O1    0

[in] # inhibition lookup, item `CC(C)(C)C1=CC(=C/C=C/c2cc(C(C)(C)C)[te+]c(C(C)(C)C)c2)C=C(C(C)(C)C)O1`
[out] 10.9

[in] // next record `CC(C)(C)C1=CC(=C/C=C/c2cc(C(C)(C)C)[se+]c(C(C)(C)C)c2)C=C(C(C)(C)C)O1`
[out] 2.55

[in] // next record `CC(C)(C)C1=CC(=C/C=C/c2cc(C(C)(C)C)[s+]c(C(C)(C)C)c2)C=C(C(C)(C)C)S1`
[out] 0.045

[in] // next record `CC(C)(C)C1=CC(=C/C=C/c2cc(C(C)(C)C)[s+]c(C(C)(C)C)c2)C=C(C(C)(C)C)O1`
[out] 0.03

[in] // next record `CC(C)(C)C1=CC(=C/C=C/c2cc(C(C)(C)C)[se+]c(C(C)(C)C)c2)C=C(C(C)(C)C)S1`
[out] 4.05
